B1: 2K2A (parent)
chain: ELREAFRLYDKEGNGYISTDVMREILAELDETLSSEDLDAMIDEIDADGSGTVDFEEFMGVMT

variants of: B1; experiment: folding stability dG (cDNA display proteolysis); higher = more stable; conditions: PBS, room temperature
# if value of folding stability dG reaches 2 kcal/mol, tag condition met; if it stays below, tag condition not met

Quick check: does `S35A` have folding stability dG greater than or equal to 2 kcal/mol?
condition not met

Quick check: does `T63L` have folding stability dG greater than or equal to 2 kcal/mol?
condition met

Quick check: does `D20Q` have folding stability dG greater than or equal to 2 kcal/mol?
condition met

Quick check: does `E12L` have folding stability dG greater than or equal to 2 kcal/mol?
condition not met

Quick check: does `E44P` have folding stability dG greater than or equal to 2 kcal/mol?
condition not met

Quick check: does `G60V` have folding stability dG greater than or equal to 2 kcal/mol?
condition met

Quick check: does `M62A` have folding stability dG greater than or equal to 2 kcal/mol?
condition not met

Quick check: does `Y16Q` have folding stability dG greater than or equal to 2 kcal/mol?
condition not met

Quick check: does `V53I` have folding stability dG greater than or equal to 2 kcal/mol?
condition met

Quick check: does `G13H` have folding stability dG greater than or equal to 2 kcal/mol?
condition not met

Quick check: does `T19I` have folding stability dG greater than or equal to 2 kcal/mol?
condition met

Quick check: does `S34N` have folding stability dG greater than or equal to 2 kcal/mol?
condition not met

Quick check: does `L29F` have folding stability dG greater than or equal to 2 kcal/mol?
condition not met

Quick check: does `T52E` have folding stability dG greater than or equal to 2 kcal/mol?
condition not met

Just for reference, the MegaScale stability set (Tsuboyama et al. 2023) is where these values come from.
